Values were extracted from patent US9266853B2.

- METHOD_DESCRIPTION: Cytotoxicity test (WST-8)
- Format: cell-based
- REPORTED_CONDITIONS: human, firefly luciferase HCV replicon cells (Huh3-1); Huh3-1 replicon cells, 3 days culture, Cell counting kit-8; read-out: Cytotoxicity WST8 (IC50)
- Procedure: The firefly luciferase HCV replicon cells (Huh3-1) were suspended in Dulbecco's MEM (Gibco cat. No. 10,569-010) containing 5% fetal bovine serum (Hyclone cat. No. SH30071.03), seeded at 4500 cells/90 μL/well in 96-well plates, and cultured overnight in 5% CO2 at 37° C. […] Clear plates were used for a cytotoxicity test (WST-8). Cytotoxicity was measured using Cell counting kit-8 (Dojindo cat. No. CK04). […]
// reported IC50 at 3 days per item

IC50 at 3 days for CCCCCCCC(F)(F)CCCCCC/C=C/[C@H](C(=O)N[C@@H](Cc1ccc(OCCCC)cc1)C(=O)OC)[C@@](O)(CCOC)C(=O)O is > 1000 nM

Now examine the next entry.
IC50 at 3 days for CCCCCCCC(F)(F)CCCCCC/C=C/[C@H](C(=O)N[C@@H](Cc1ccc(OCCCC)cc1)C(=O)O)[C@@](O)(CCOC)C(=O)O is > 1000 nM
